These entries and their values trace back to patent US12421254B2.

Documented IC50 across a set of compounds
Molecular target: GST-tagged KRAS-G12V (2-169) (Homo sapiens, UniProt P01116, G12V)
Sequence (P01116 2-169 isoform P01116-2 G12V): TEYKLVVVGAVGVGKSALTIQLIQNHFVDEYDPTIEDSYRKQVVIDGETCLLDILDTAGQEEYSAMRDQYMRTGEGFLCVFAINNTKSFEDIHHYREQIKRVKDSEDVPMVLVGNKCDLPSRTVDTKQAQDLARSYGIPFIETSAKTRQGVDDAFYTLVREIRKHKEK
Assay: Nucleotide exchange assay (NEA), SOS-mediated, HTRF, KRAS G12V
Conditions: Table 4; IC50 extracted at 90 min; 80 nM SOS

Compound	IC50
C[C@@]1(O)CCCN(c2nc(OC[C@@]34CCCN3C[C@H](F)C4)nc(N3CC4(C3)SCc3sc(N)c(C#N)c34)n2)C1	< 10 nM
C[C@H](c1cccnc1N)N(CCF)c1nc(OC[C@@]23CCCN2C[C@H](F)C3)nc(N2CC3(C2)SCc2sc(N)c(C#N)c23)n1	< 10 nM
CC(c1cccnc1N)N(C)c1nc(OCC2(CN3CCOCC3)CC2)nc(N2CC3(CCc4sc(N)c(C#N)c43)C2)n1 (stereo not drawn)	< 10 nM

====

Biological target: GST-tagged KRAS-G12V (2-169) (Homo sapiens, UniProt P01116, G12V)
Assay: Nucleotide exchange assay (NEA), SOS-mediated, HTRF, KRAS G12V
Details: Table 4; IC50 extracted at 90 min; 80 nM SOS
Readout label: IC50

Compound	Readout label	Result
CCN(c1nc(OCC2CCC3C(=O)N(C)CCN23)nc(N2CC3(C2)SCc2sc(N)c(C#N)c23)n1)C(C)c1cccnc1N (mixture of isomers)	IC50	< 10 nM
C[C@]1(O)CN(c2nc(OC[C@@]34CCCN3C[C@H](F)C4)nc(N3CC4(CCc5sc(N)c(C#N)c54)C3)n2)CC[C@@H]1O (racemic)	IC50	100 to 1000 nM
CCN(c1nc(OCC23CCC(CN(C)C2)N3C)nc(N2CC3(C2)SCc2sc(N)c(C#N)c23)n1)[C@H](C)c1cccnc1N (some centres unmarked)	IC50	< 10 nM
N#Cc1c(N)sc2c1C1(CC2)CN(c2nc(OC[C@@]34CCCN3C[C@H](F)C4)nc(N3CCCCC(O)C3)n2)C1 (some centres unmarked)	IC50	10 to 100 nM
C[C@@]1(O)CCCN(c2nc(OC[C@@]34CCCN3C[C@H](F)C4)nc(N3CC4(CCCc5sc(N)c(C#N)c54)C3)n2)C1	IC50	10 to 100 nM
CCN(c1nc(OC[C@]2(CO)CCCN2C)nc(N2CC3(C2)SCc2sc(N)c(C#N)c23)n1)[C@H](C)c1cccnc1N	IC50	< 10 nM
C[C@@]1(O)C[C@H](O)CN(c2nc(OC[C@@]34CCCN3C[C@H](F)C4)nc(N3CC4(CCc5sc(N)c(C#N)c54)C3)n2)C1	IC50	10 to 100 nM
C[C@H](c1cccnc1N)N(CC(N)=O)c1nc(OC[C@@]23CCCN2C[C@H](F)C3)nc(N2CC3(C2)SCc2sc(N)c(C#N)c23)n1	IC50	< 10 nM

====

Documented pIC50 across a set of compounds
Target: GST-tagged KRAS-G12D (2-169) (Homo sapiens, UniProt P01116, G12D)
Sequence (P01116 2-169 isoform P01116-2 G12D): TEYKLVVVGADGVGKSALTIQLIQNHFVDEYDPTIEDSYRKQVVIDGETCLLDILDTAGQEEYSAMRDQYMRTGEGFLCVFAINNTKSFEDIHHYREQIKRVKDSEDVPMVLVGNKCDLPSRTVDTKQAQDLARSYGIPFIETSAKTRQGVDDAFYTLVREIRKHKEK
Assay: Nucleotide exchange assay (NEA), SOS-mediated, HTRF, KRAS G12D
Assay type: biochemical
Conditions: Table 4; IC50 extracted at 30 min; 20 nM SOScat; read-out: NEA G12D IC50
pIC50: −log10 of the molar value.

Compound	pIC50
CN(c1nc(OC[C@@]23CCCN2C[C@H](F)C3)nc(N2CC3(CCc4sc(N)c(C#N)c43)C2)n1)[C@H]1COC[C@H]1O (racemic) [Compound 53]	4.70 to 6.00
CCN(c1nc(OC[C@@]23CCCN2C[C@H](F)C3)nc(N2CC3(C2)c2c(sc(N)c2C#N)C2CC23)n1)[C@H](C)c1cccnc1N (stereo partly shown) [Compound 212]	> 8.00
CC(c1cn(C)nc1N)N(C)c1nc(OC[C@@]23CCCN2C[C@H](F)C3)nc(N2CC3(CCc4sc(N)c(C#N)c43)C2)n1 (stereo partly shown) [Compound 157]	6.00 to 7.00
CN(C)CC1(COc2nc(N3CC4(CCc5sc(N)c(C#N)c54)C3)nc(N3CCC[C@@](C)(O)C3)n2)CC1(F)F (stereo partly shown) [Compound 34]	> 8.00

====

Documented pIC50 across a set of compounds
Test system: phospho-ERK in SW620 (KRAS-G12V) cells
Assay: pERK In Cell Western (ICW) assay (Method B), SW620
Format: cell-based
Settings: Homo sapiens, SW-620, 3 h, Table 4
pIC50: −log10 of the molar value.
Readout label: pIC50

Compound	Result
CC(c1ccnnc1N)N(C)c1nc(OC[C@@]23CCCN2C[C@H](F)C3)nc(N2CC3(CCc4sc(N)c(C#N)c43)C2)n1 (some centres unmarked)	7.00 to 8.00
CCN(c1nc(OC[C@@]23CCCN2C[C@H](F)C3)nc(N2CC3(C2)c2c(sc(N)c2C#N)CN3C)n1)[C@H](C)c1cccnc1N	7.00 to 8.00
CCN(c1nc(OCCN2CCCCC2)nc(N2CC3(C2)SCc2sc(N)c(C#N)c23)n1)[C@H](C)c1cccnc1N	7.00 to 8.00
N#Cc1c(N)sc2c1C1(CC2)CN(c2nc(OC[C@@]34CCCN3C[C@H](F)C4)nc(N3CCCC4(CC(=O)N4)C3)n2)C1 (some centres unmarked)	4.70 to 6.00
N#CCC1C=C(F)CN(c2nc(OCC3(CN4CCOCC4)CC3)nc(N3CC4(CCc5sc(N)c(C#N)c54)C3)n2)C1 (centres unmarked)	4.70 to 6.00
CC(c1cccnc1O)N(C)c1nc(OC[C@@]23CCCN2C[C@H](F)C3)nc(N2CC3(CCc4sc(N)c(C#N)c43)C2)n1 (some centres unmarked)	4.70 to 6.00
C[C@@]1(O)CCCN(c2nc(OCC3(CN4CCOCC4)CC3)nc(N3CC4(C3)c3c(sc(N)c3C#N)C[C@H]4F)n2)C1	6.00 to 7.00
N#Cc1c(N)sc2c1C1(CN(c3nc(OC[C@@]45CCCN4C[C@H](F)C5)nc(N(CCO)CC4(C#N)CC4)n3)C1)SC2	6.00 to 7.00
C[C@@]1(O)CCCN(c2nc(OC[C@@]34CCCN3C[C@H](F)C4)nc(N3CC4(C3)c3c(sc(N)c3C#N)CC3CC34)n2)C1 (some centres unmarked)	4.70 to 6.00
N#Cc1c(N)sc2c1C1(CN(c3nc(OCC4(CN5CCOCC5)CC4)nc(N4CCNC[C@H]4C(F)F)n3)C1)SC2	4.70 to 6.00
CCN(c1nc(OCC23CCC(COC2)N3)nc(N2CC3(C2)SCc2sc(N)c(C#N)c23)n1)[C@H](C)c1cccnc1N (some centres unmarked)	7.00 to 8.00
CC(O)CN(Cc1cccnc1N)c1nc(OC[C@@]23CCCN2C[C@H](F)C3)nc(N2CC3(CCc4sc(N)c(C#N)c43)C2)n1 (some centres unmarked)	6.00 to 7.00
CC(c1cccnc1N)N(C)c1nc(OCC2(CN3CCOCC3)CC2)nc(N2CC3(C2)SCc2sc(N)c(C#N)c23)n1 (centres unmarked)	7.00 to 8.00
CC(CO)N(Cc1cccnc1N)c1nc(OC[C@@]23CCCN2C[C@H](F)C3)nc(N2CC3(CCc4sc(N)c(C#N)c43)C2)n1 (some centres unmarked)	6.00 to 7.00
N#Cc1c(N)sc2c1C1(CN(c3nc(OC[C@@]45CCCN4C[C@H](F)C5)nc(N4[C@H]5CC[C@]4(CO)COC5)n3)C1)SC2	6.00 to 7.00
CCN(c1nc(OC[C@@H]2CCCN2C)nc(N2CC3(C2)SCc2sc(N)c(C#N)c23)n1)[C@H](C)c1cccnc1N	7.00 to 8.00
N#Cc1c(N)sc2c1C1(CN(c3nc(OC[C@@]45CCCN4C[C@H](F)C5)nc(N(CC(=O)O)C4(C#N)CC4)n3)C1)SC2	4.70 to 6.00

====

Target: KRAS G12D/RAF1 (Homo sapiens, UniProt P01116, G12D)
Construct: KRAS (1-169) proteins were expressed in BL21 (DE3)-CodonPlus E. coli; His6-MBP (N, cleaved yes)
Sequence (P01116 with tags, fused parts or gaps isoform P01116-2 G12D): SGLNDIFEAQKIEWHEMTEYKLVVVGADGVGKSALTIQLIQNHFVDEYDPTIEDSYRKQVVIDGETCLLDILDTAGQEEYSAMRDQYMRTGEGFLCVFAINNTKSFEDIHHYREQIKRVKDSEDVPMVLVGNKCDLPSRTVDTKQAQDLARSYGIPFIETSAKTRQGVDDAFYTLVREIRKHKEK
Assay: Protein-protein interaction (PPI) HTRF assay KRAS G12D/RAF1
Type: binding
Settings: Table 2
Documented IC50 across a set of compounds
Readout label: IC50

Compound	Result
N#Cc1c(N)sc2c1C1(CC2)CN(c2nc(OC[C@@]34CCCN3C[C@H](F)C4)nc(N3CCCC(C#N)CC3)n2)C1 (stereo partly drawn)	1 to 10 µM
N#Cc1c(N)sc2c1C1(CC2)CN(c2nc(OCC3(C#N)CC3)nc(OC[C@@]34CCCN3C[C@H](F)C4)n2)C1	1 to 10 µM
N#Cc1c(N)sc2c1C1(CC2)CN(c2nc(OC[C@@]34CCCN3C[C@H](F)C4)nc(N3CCCC(C#N)C3)n2)C1 (stereo partly drawn)	1 to 10 µM
